Record form. Attribute: remaining activity at 192 µM. Fill in for each entry.
test.target: POS-1 (Caenorhabditis elegans)
Construct: 6-his tag (N); made in house; host or cells: E. coli BL21 (DE3) Gold
Sequence (G5EF15 80-180): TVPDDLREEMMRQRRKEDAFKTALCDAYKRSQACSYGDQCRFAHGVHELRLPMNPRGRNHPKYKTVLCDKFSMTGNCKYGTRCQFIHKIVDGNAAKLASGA
protocol.details: Fluorescence polarization screening of POS-1 binding to fluorescein-labeled BMF018 RNA
conditions: 192 μM test compound; score = polarization relative to no-drug and no-protein controls; 0.25 = 75% inhibition; lowest score = greatest inhibition; read-out: POS-1 score
Answers are plain numbers, in %.

Record excerpt, results attached:
{"compound": "O=c1cc(-c2ccccc2)c2ccc(O)c(O)c2o1", "remaining activity at 192 µM / %": 0.543}
{"compound": "Cc1ccc(C)c(OCC(=O)Nc2ccc(S(=O)(=O)Nc3nccs3)cc2)c1C", "remaining activity at 192 µM / %": 19}
{"compound": "Cc1ccc(CC(=O)Nc2ccc(S(=O)(=O)Nc3nccs3)cc2)cc1", "remaining activity at 192 µM / %": 23.7}
{"compound": "CCOc1cc(/C=C2\\C(=O)N(c3ccc(C(=O)O)cc3)N=C2C)ccc1OC(=O)c1cccs1", "remaining activity at 192 µM / %": 22.5}

For every record below, what is its remaining activity at 192 µM?
1. CC(C)(C)c1ccc(C(=O)Nc2ccc(S(=O)(=O)Nc3nccs3)cc2)cc1Br
2. O=C(NC(=S)Nc1ccc(C(=O)O)c(Cl)c1)c1ccc(Cl)c(Cl)c1
3. Cc1c(C(=O)NC(=S)Nc2cc(C(=O)O)ccc2Cl)cccc1[N+](=O)[O-]
4. O=C(Oc1ccc2c(c1)C1C=CCC1C(C(=O)O)N2)c1ccc(Cl)cc1Cl (stereo not shown)
5. O=C1NN(c2cccc(Br)c2)C(=O)/C1=C\c1cccc(OC(=O)c2cccs2)c1

[27.5, 20.1, 26.2, 5.81, 10.6]

Dear colleague, could you send me remaining activity at 192 µM for each of the items below? Thanks.
1. COc1cc(/C=C2/C(=O)N(c3ccc(Cl)c(C(=O)O)c3)N=C2C)ccc1OC(=O)c1cccs1
2. O=[N+]([O-])c1ccc(S(=O)(=O)Nc2cc(Cl)ccc2O)cc1
3. O=C1NN(c2ccc(F)c(Cl)c2)C(=O)/C1=C\c1cccc(OC(=O)c2cccs2)c1
4. COc1ccc(S(=O)(=O)Nc2ccccc2NS(=O)(=O)c2ccc(OC)cc2)cc1
5. CCn1c(-c2cc(Br)ccc2O)n[nH]c1=S

[10.1, 8.27, 4.3, -1.62, 24.8]

Report remaining activity at 192 µM for each item below.
1. O=C(O)c1ccc(C2Nc3ccc([N+](=O)[O-])cc3C3c4ccccc4CC23)cc1 (stereo not shown)
2. CCOC(=O)c1ccc(N2NC(=O)/C(=C/c3cccc(OC(=O)c4cccs4)c3)C2=O)cc1
3. COc1ccc(C(=O)NC(=S)Nc2ccc(C(=O)O)c(Cl)c2)cc1[N+](=O)[O-]
4. CCCCC(=O)NC(c1ccccc1Cl)c1cc([N+](=O)[O-])c2cccnc2c1O (stereo not shown)

1. 10.9
2. 14.3
3. 9.05
4. 26.5

Entry under review: O=S(=O)(Nc1ccc(S(=O)(=O)Nc2nccs2)cc1)c1ccc(Br)cc1 . Reported remaining activity at 192 µM?
4.89
